System: 596521-263-R-J1-PDC complex spheroid growth
Assay: Anticancer human tumor 596521-263-R-J1-PDC patient-derived soft tissue sarcoma cell line growth inhibition [Asc]
Conditions: second compound 0.1 µM; first compound 0.316 µM; active compounds read low
measured-attribute: viability, T/C (%)
Express your answer in %, writing the number without its unit.

>  <compound>
O=C(c1ccc(F)c(F)c1Nc1ccc(I)cc1F)N1CC(O)([C@@H]2CCCCN2)C1 + CNC(C)C(=O)NC1CN(S(=O)(=O)c2cccc(S(=O)(=O)N3CCC4CCC(C(=O)NC(c5ccccc5)c5ccccc5)N4C(=O)C(NC(=O)C(C)NC)C3)c2)CCC2CCC(C(=O)NC(c3ccccc3)c3ccccc3)N2C1=O

>  <viability, T/C [%]>
37.5

$$$$

Consider the additional compound presented here.
Q: Name the reported viability, T/C value associated with the compound C#Cc1c(F)ccc2cc(O)cc(-c3ncc4c(N5CC6CCC(C5)N6)nc(OCC56CCCN5CC(F)C6)nc4c3F)c12 (configuration not stated) + Cc1c(S(C)(=O)=O)c(-c2cc(F)cc(N3CCN(c4ccc(NS(=O)(=O)c5ccc(NC(CCN6CCC(C(=O)OCCCP(=O)(O)O)CC6)CSc6ccccc6)c(S(=O)(=O)C(F)(F)F)c5)cc4)CC3)c2)c(-c2ccc(Cl)cc2)n1C(C)C
A: 107

====

System: 596521-263-R-J1-PDC complex spheroid growth
Assay: Anticancer human tumor 596521-263-R-J1-PDC cell line growth inhibition [Asc];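 note: spheroids exposed to compounds for 7 days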
Details: second compound 1 µM; first compound 0.0949 µM; active compounds read low
The label is yes (1) for viability, T/C below 70% and no (0) for viability, T/C equal to or exceeding 70%.

Below, 3 compounds whose answers are already recorded.
>  <compound>
CCN1C(C(=O)NC23CCC(C(=O)O)(CC2)CC3)C(c2cccc(Cl)c2F)C2(C(=O)Nc3cc(Cl)ccc32)C12CCCCC2 (stereo not given) + Cc1c(S(C)(=O)=O)c(-c2cc(F)cc(N3CCN(c4ccc(NS(=O)(=O)c5ccc(NC(CCN6CCC(C(=O)OCCCP(=O)(O)O)CC6)CSc6ccccc6)c(S(=O)(=O)C(F)(F)F)c5)cc4)CC3)c2)c(-c2ccc(Cl)cc2)n1C(C)C

>  <group>
yes (1)

$$$$
>  <compound>
NC(=O)C(=Cn1cnc(-c2cc(C(F)(F)F)cc(C(F)(F)F)c2)n1)c1cncnc1 + CNC(C)C(=O)NC1CN(S(=O)(=O)c2cccc(S(=O)(=O)N3CCC4CCC(C(=O)NC(c5ccccc5)c5ccccc5)N4C(=O)C(NC(=O)C(C)NC)C3)c2)CCC2CCC(C(=O)NC(c3ccccc3)c3ccccc3)N2C1=O

>  <group>
yes (1)

$$$$
>  <compound>
Cc1nc(N2CCC3(CC2)COC(C)C3N)c(CO)nc1Sc1ccnc(N)c1Cl (stereo not given) + Cc1c(S(C)(=O)=O)c(-c2cc(F)cc(N3CCN(c4ccc(NS(=O)(=O)c5ccc(NC(CCN6CCC(C(=O)OCCCP(=O)(O)O)CC6)CSc6ccccc6)c(S(=O)(=O)C(F)(F)F)c5)cc4)CC3)c2)c(-c2ccc(Cl)cc2)n1C(C)C

>  <group>
no (0)

$$$$

Q: Please determine if Cc1nc(N2CCC3(CC2)COC(C)C3N)c(CO)nc1Sc1ccnc(N)c1Cl (stereo not given) + CNC(C)C(=O)NC1CN(S(=O)(=O)c2cccc(S(=O)(=O)N3CCC4CCC(C(=O)NC(c5ccccc5)c5ccccc5)N4C(=O)C(NC(=O)C(C)NC)C3)c2)CCC2CCC(C(=O)NC(c3ccccc3)c3ccccc3)N2C1=O is below 70% in terms of viability, T/C.
A: no (0)

Q: Moving on to the next compound: NC(=O)C(=Cn1cnc(-c2cc(C(F)(F)F)cc(C(F)(F)F)c2)n1)c1cncnc1 + Cc1c(S(C)(=O)=O)c(-c2cc(F)cc(N3CCN(c4ccc(NS(=O)(=O)c5ccc(NC(CCN6CCC(C(=O)OCCCP(=O)(O)O)CC6)CSc6ccccc6)c(S(=O)(=O)C(F)(F)F)c5)cc4)CC3)c2)c(-c2ccc(Cl)cc2)n1C(C)C
A: yes (1)
